Quick reference for pKd among some sequences
assay_system: HLA-B*07:02
assay_summary: IEDB peptide-MHC binding, purified MHC/direct/fluorescence; filed as Kd, often an IC50 or EC50 that approximates it; bounds were set here for any values at or beyond the usual limits of such assays
assay_conditions: source organism: Brucella melitensis
pKd: −log10 of the molar value.
endpoint_label: pKd

sequence_chain	result_value
RVISDGYFK	≤ 4.70
RLWNGRRCR	≤ 4.70

====

assay_system: HLA-B*58:01
assay_summary: IEDB peptide-MHC binding, purified MHC/direct/fluorescence; filed as Kd, often an IC50 or EC50 that approximates it; bounds were set here for any values at or beyond the usual limits of such assays
assay_conditions: source organism: SARS-CoV1
pKd: −log10 of the molar value.

sequence_chain	pKd
KSYEHQTPF	7.06

The reported measurements were obtained from the Immune Epitope Database (IEDB).
